target: HLA-B*3501 (human), P01889; assay: competition, FACS 4C; details: modification not given
pIC50: −log10 of the molar value.
Result Type: pIC50

Identify measured pIC50 associated with EPILCPCFM [PRAME 499-507]
> 6.00
